Overview of reported Percent Effect across a group of molecules:
Biological target: Arginase-2, mitochondrial (Homo sapiens)
Assay: in vitro enzyme assay to detect the production of urea directly proportional to the activity of Arginase II; also: in the data most compounds retested in dose-response had high values
Type: functional
Design: scale not given: direction of the effect not stated beside the values
Conditions: 33.3 µM

{"MOLECULE": "Cc1ncsc1C(=O)NC1CCN(CCC(N)=O)CC1", "TESTED_ON": "Arginase-2, mitochondrial (Homo sapiens)", "Percent Effect, %": 0.356}
{"MOLECULE": "Cc1cnc(N2CC3(CCN(C(=O)c4ccoc4)C3)C2)nc1", "TESTED_ON": "Arginase-2, mitochondrial (Homo sapiens)", "Percent Effect, %": -30.3}
{"MOLECULE": "O=C1CCSCC(C(=O)N2CCOCC2)N1 (configuration not stated)", "TESTED_ON": "Arginase-2, mitochondrial (Homo sapiens)", "Percent Effect, %": -0.455}
{"MOLECULE": "CCC(=O)NC1CCN(c2cccc(CC)c2)CC1", "TESTED_ON": "Arginase-2, mitochondrial (Homo sapiens)", "Percent Effect, %": -1.5}
{"MOLECULE": "CCc1nc(CN(C)C2CCN(CCS(C)(=O)=O)C2)no1 (configuration not stated)", "TESTED_ON": "Arginase-2, mitochondrial (Homo sapiens)", "Percent Effect, %": -1.77}
{"MOLECULE": "CCn1ccnc1CN1CCCN(C(=O)c2sccc2C#N)CC1", "TESTED_ON": "Arginase-2, mitochondrial (Homo sapiens)", "Percent Effect, %": 1.52}
{"MOLECULE": "CCOc1nnc(CN(C)CC2CCCN2c2cccnn2)s1 (configuration not stated)", "TESTED_ON": "Arginase-2, mitochondrial (Homo sapiens)", "Percent Effect, %": -8.28}

----------
Overview of reported Percent Effect across a group of compounds:
Test system: Trypanosoma cruzi
Test: Trypanosoma cruzi phosphomannomutase and mannose-1-phosphate guanylyltransferase assay
Format: functional
Set-up: scale not given: direction of the effect not stated beside the values
Settings: 10 µM

{"COMPOUND": "Cc1cnn(CCNCC(=O)NCC2(c3ccccc3)CCC2)c1", "Percent Effect [%]": -5.19}
{"COMPOUND": "Cc1cc(C[C@@H]2COC[C@@H]2NC(=O)CN2CCCN(C)CC2)on1", "Percent Effect [%]": 6.27}
{"COMPOUND": "CCc1ccc(OCC(O)CN2CCC(O)CC2)cc1 (stereo not given)", "Percent Effect [%]": -4.21}
{"COMPOUND": "COc1ccccc1C(O)CNC(=O)NCc1cccnc1OC (stereo not given)", "Percent Effect [%]": -7.84}
{"COMPOUND": "c1cncc(C2COC3(CCN(CC4CC4)CC3)C2)c1 (stereo not given)", "Percent Effect [%]": -1.17}
{"COMPOUND": "Cc1ccc(-c2cn[nH]c2C2CCCN(c3nccc(N)n3)C2)cc1 (stereo not given)", "Percent Effect [%]": 5.15}
{"COMPOUND": "O=C(NCCN1CCOCC1)NCC(O)c1cccc(F)c1 (stereo not given)", "Percent Effect [%]": 5.75}
{"COMPOUND": "Cc1nccc(-c2cccc(NCC(=O)N3CCCCCCC3)c2)n1", "Percent Effect [%]": -0.28}
{"COMPOUND": "CCn1nc(C(=O)N2CCCC(n3cncn3)C2)ccc1=O (stereo not given)", "Percent Effect [%]": 6.76}
{"COMPOUND": "COC[C@@H]1CC[C@H]2[C@H](CCN2S(=O)(=O)c2ccc(OC)cc2)O1", "Percent Effect [%]": -0.876}
{"COMPOUND": "CCCOCCCNc1nccc(-c2cn(C)nc2C)n1", "Percent Effect [%]": 12.5}
{"COMPOUND": "O=C(NCCN1CCCCC1)c1ccoc1", "Percent Effect [%]": -7.28}
{"COMPOUND": "Cc1ccc2c(n1)N(CCn1cccn1)CCN(C(=O)NC1CC1)C2", "Percent Effect [%]": 6.55}
{"COMPOUND": "COCCc1noc(CN(C)C(=O)c2cccc(N3CCCC3=O)c2)n1", "Percent Effect [%]": -1.23}
{"COMPOUND": "CCOc1ccc2[nH]c(=O)c(CN3CCC(O)CC3)cc2c1", "Percent Effect [%]": 3.4}
{"COMPOUND": "O=C(Cc1cccnc1)N1CCC2(CC1)CCN(C1CCOCC1)C2", "Percent Effect [%]": -1.67}
{"COMPOUND": "O=C(NCC1(N2CCOCC2)CCSC1)Nc1ccc(F)cc1 (stereo not given)", "Percent Effect [%]": 0.193}
{"COMPOUND": "O=S(=O)(c1ccccc1)N1CCCCC1c1cc[nH]n1 (stereo not given)", "Percent Effect [%]": -6.71}
{"COMPOUND": "CCS(=O)(=O)N1CCC2(CC1)CC(Oc1ccccn1)CO2 (stereo not given)", "Percent Effect [%]": -5.23}
{"COMPOUND": "CN(C)S(=O)(=O)N1CCC(Oc2ccc(C#N)cc2)CC1", "Percent Effect [%]": -6.12}
{"COMPOUND": "CN(CCNC(=O)N1CCN(Cc2ccon2)CC1)C1CCCC1", "Percent Effect [%]": 1.85}
{"COMPOUND": "COc1cc(C(=O)N2CCCC(CNS(C)(=O)=O)C2)cc(OC)c1C (stereo not given)", "Percent Effect [%]": 2.74}
{"COMPOUND": "Cc1cnc(CN2CCOC(CNc3cccnn3)C2)cn1 (stereo not given)", "Percent Effect [%]": -6.74}
{"COMPOUND": "COc1cccc(COCC(=O)N2CCN(CC(C)(C)O)CC2)c1", "Percent Effect [%]": -3.76}
{"COMPOUND": "Cn1nc2c(cc1=O)CN(Cc1nnc(C3CC3)o1)CC2", "Percent Effect [%]": -6.29}
